Target: human B1R receptor (CHO K1 cells stably transfected with the human B1R gene) (Homo sapiens, UniProt P46663)
Construct: expressed in transfected cells; host or cells: CHO K1 cells (Chinese hamster ovary), stably transfected
Sequence (P46663 whole entry): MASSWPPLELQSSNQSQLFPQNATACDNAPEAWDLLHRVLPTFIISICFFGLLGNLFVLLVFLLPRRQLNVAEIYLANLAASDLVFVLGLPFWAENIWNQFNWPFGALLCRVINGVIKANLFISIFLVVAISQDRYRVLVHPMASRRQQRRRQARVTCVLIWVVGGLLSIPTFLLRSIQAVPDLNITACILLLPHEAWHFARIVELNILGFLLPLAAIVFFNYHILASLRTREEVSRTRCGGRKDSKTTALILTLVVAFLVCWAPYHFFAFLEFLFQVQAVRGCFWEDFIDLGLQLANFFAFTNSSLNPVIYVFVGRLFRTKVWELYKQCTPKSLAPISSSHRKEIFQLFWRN
Assay: Functional study on the bradykinin receptor 1 (B1R), Ca2+ fluorescence (Fluo-4) FLIPR/Novostar assay, hB1R cells
Type: cell-based
Conditions: CHO-K1, read-out: % inhibition (human B1R) at 10 μM
MEASUREMENT KIND: inhibition at 10 µM (%)

The examples below pair each entry with its known result.
CN(C(=O)c1ccc2c(c1)[C@H](NC(=O)C(C)(C)c1ccccc1Cl)CC2)C1CCN(c2ccncc2)CC1; 100
CC(C)CS(=O)(=O)N[C@@H]1CCc2ccc(C(=O)N(C)C3CCN(c4ccncc4)CC3)cc21; 100

I. Cc1cc(N2CCC(N(C)C(=O)c3ccc4c(c3)[C@H](NC(=O)c3cccnc3C(F)(F)F)CC4)CC2)ccn1
II. O=C(N[C@H]1CCN(C2CCN(C3CC3)CC2)C1)c1ccc2c(c1)[C@H](NC(=O)c1ccccc1Cl)CC2
Exam item: For the two items I and II , which reports the higher inhibition at 10 µM value? Response format: the label of the selected entry.
Marked response: I

###

Target: human B1R receptor (CHO K1 cells stably transfected with the human B1R gene) (Homo sapiens, UniProt P46663)
Construct: expressed in transfected cells; host or cells: CHO K1 cells (Chinese hamster ovary), stably transfected
Experiment: Functional study on the bradykinin receptor 1 (B1R), Ca2+ fluorescence (Fluo-4) FLIPR/Novostar assay, hB1R cells
Type: cell-based
Settings: CHO-K1, read-out: % inhibition (human B1R) at 10 μM
MEASUREMENT KIND: inhibition at 10 µM (%)

Here are 2 molecules together with their reported answers.
CN(C(=O)c1ccc2c(c1)[C@H](NC(=O)c1ccccc1Cl)CC2)C1CCN(c2cc[n+]([O-])cc2)CC1; 100
Cc1cc(N2CCC(N(C)C(=O)c3ccc4c(c3)[C@H](NC(=O)c3ccc(F)cc3Cl)CC4)CC2)nc(C)n1; 100

A. CN(C(=O)c1ccc2c(c1)[C@H](NC(=O)c1ccccc1Cl)CC2)C1CCN(c2ccncc2C(F)(F)F)CC1
B. CN(C(=O)c1ccc2c(c1)[C@H](NC(=O)c1ccccc1Cl)CC2)C1CCC(Oc2ccncc2)CC1 (some centres unmarked)
C. Cc1cc(N2CCC(N(C)C(=O)c3ccc4c(c3)[C@H](N(C(=O)c3ccccc3C)C(C)C)CC4)CC2)nc(C)n1
Exam item: Let's sort these by inhibition at 10 µM, smallest first. Go ahead? Quick reminder: the answer is the labels in the order asked.
Marked response: B, C, A
(B: 38%, C: 65%, A: 93%)

###

Biological target: B1R receptor of the rat (CHO K1 cells stably transfected with the B1R gene of the rat) (Rattus norvegicus)
Construct: expressed in transfected cells; host or cells: CHO K1 cells (Chinese hamster ovary), stably transfected
Sequence (P97583 1-337): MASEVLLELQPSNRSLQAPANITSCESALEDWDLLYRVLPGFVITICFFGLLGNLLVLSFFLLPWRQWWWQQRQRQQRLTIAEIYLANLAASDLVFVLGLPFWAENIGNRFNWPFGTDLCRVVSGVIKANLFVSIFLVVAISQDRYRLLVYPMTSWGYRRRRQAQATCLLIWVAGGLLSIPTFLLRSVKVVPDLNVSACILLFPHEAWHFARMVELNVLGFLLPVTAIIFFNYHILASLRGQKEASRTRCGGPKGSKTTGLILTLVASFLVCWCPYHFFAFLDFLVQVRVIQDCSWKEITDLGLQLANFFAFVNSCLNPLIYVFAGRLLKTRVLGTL
Test: Functional study on the bradykinin receptor 1 (B1R), Ca2+ fluorescence (Fluo-4) FLIPR/Novostar assay, rB1R cells
Format: cell-based
Conditions: CHO-K1, 10 μM, read-out: % inhibition (rat B1R) at 10 μM
MEASUREMENT KIND: inhibition at 10 µM (%)

Illustrative cases are given below, each with its answer.
Cc1cc(N2CCC(N(C)C(=O)c3ccc4c(c3)[C@H](NC(=O)c3ccccc3Cl)CC4)CC2)ncn1 [Example H-141]; 105
O=C(NC1CCN(c2ccncc2)CC1)c1ccc2c(c1)[C@H](NC(=O)c1ccccc1Cl)CC2 [Example H-07]; 96
CN(C(=O)c1ccc2c(c1)[C@H](NC(=O)C1(c3ccccc3F)CCCC1)CC2)C1CCN(c2ccncc2)CC1 [Example H-47]; 104

I. CN(C(=O)c1ccc2c(c1)C(N(C(=O)c1ccccc1Cl)C(C)(C)C)CC2)C1CCN(c2ccncc2)CC1 (stereo not drawn) [Example H-110]
II. O=C(NCCC1CCN(c2ccncc2)CC1)c1ccc2c(c1)[C@H](NC(=O)c1ccccc1Cl)CC2 [Example H-15]
III. CN(C(=O)c1ccc2c(c1)CC[C@H]2N1Cc2cccc(Cl)c2C1=O)C1CCN(c2ccccn2)CC1 [Example H-26]
Exam item: Arrange these 3 compounds in increasing order of inhibition at 10 µM. As an answer, provide the labels arranged in the order called for.
Marked response: III, I, II
(III: 0%, I: 26%, II: 99%)
